Reference source for all entries: patent US20070167526A1

EXPERIMENT: Distribution of mecamylamine into ocular tissue of rabbits following intravenous administration (Example 9)
Assay type: in vivo, New Zealand white rabbit
RECORDED CONDITIONS: male, New Zealand White, rabbit, plasma, iv, 15 mg/kg, 15 mg/kg i.v. 6 hr infusion, hour 6, read-out: Concentration of mecamylamine in the plasma, Mean
READOUT TYPE: concentration at 6 h (ng/mL)

1. CNC1(C)C2CCC(C2)C1(C)C (stereo not shown) : 313

----------
EXPERIMENT: 6-hour ocular pharmacokinetics of 2% Mecamylamine GELRITE solution following topical instillation (Example 10)
Type: in vivo, New Zealand White rabbit
RECORDED CONDITIONS: female, New Zealand White, rabbit, cornea, topical, 2% in GELRITE, 2 × 50 μL, OU (bilateral), 1 hr, read-out: Mecamylamine concentration in Cornea, Mean
READOUT TYPE: concentration at 1 h (ng/g)

1. CNC1(C)C2CCC(C2)C1(C)C (stereo not shown) : 17900
